Test system: Carrageenin-induced paw edema
Assay: Carrageenin-induced paw edema experiment using rats
Type: in vivo, Wistar-strain male rats
Conditions: Rattus norvegicus, 3 h; oral, 0.5 mg/kg; three hours after induction; vs control; read-out: Inhibition rate (edema inhibition rate)
Provide the reported inhibition in vivo at 0.5 mg/kg of each item.
Number first, unit second: that is the form wanted.

Dear colleague, please send me the reported inhibition in vivo at 0.5 mg/kg for CC(C(=O)O)c1ccc(C[C@H]2CCC[C@H]2O)c(F)c1 (relative stereo) [Example 47] when you can.
45.6%

Dear colleague, please send me the reported inhibition in vivo at 0.5 mg/kg for CC(C(=O)O)c1ccc(CC2CCCC2=O)c(F)c1 (stereo not shown) [Example 6] when you can.
52.2%

Dear colleague, please send me the reported inhibition in vivo at 0.5 mg/kg for CC(C(=O)O)c1ccc(C[C@@H]2CCC[C@H]2O)c(Cl)c1 (relative stereo) [Example 40] when you can.
56.3%

Dear colleague, please send me the reported inhibition in vivo at 0.5 mg/kg for CC(C(=O)O)c1ccc(C[C@H]2CCCC[C@@H]2O)c(Cl)c1 (stereo partly shown) [Example 28] when you can.
54.8%
